# Tested on: RAW264.7
# protocol_description: Anti-inflammatory activity in mouse RAW264.7 cells assessed as inhibition of LPS-induced NO release pretreated for 2 hrs followed by LPS stimulation measured after 48 hrs […]
# Assay type: functional, cell-based
parameter_measured: pIC50
Answer as the number alone; pIC50 is minus log10 of concentration in mol/L.

Illustrative cases are given below, each with its answer.
> print(dat)
                     input.smiles  endpoint.result
1   COc1cccc(Nc2ncnc3[nH]cnc23)c1             5.47
2  Fc1cc(Nc2ncnc3[nH]cnc23)ccc1Cl             5.35

Could you tell me which pIC50 is on file for Clc1ccccc1CNc1[nH]cnc2ncnc1-2 ? 5.45
